Reported Kd values for the following binders.
Molecular target: T1, HLA-A*0201 loaded with the Carcinoembryonic antigen (CEA)-derived … peptide (biotin on the C-terminal biotinylation tag)
T1 construct: Soluble, biotinylated, immobilised on a streptavidin chip
Assay: Biacore SPR

Illustrative cases are given below, each with its answer.
binder	Kd
SEQ ID NO 21 (receptor, mutated soluble two domain ILT-2) MAGHLPKPTLWAEPGSVITMDQPVTLRCQGGQETQEYRLYREKKTAPWITRIPQELVKKGQFPIPSITWEHAGRYRCYYGSDTSQWSASSDPLELVVTGVYIKPTLSAQPSPVVNSGGNVTLQCDSQVAFDGFILCKEGEDEHPQCLNSQPHARGSSRAIFSVGPVSPSRRWWYRCYAYPWFTPYEWSLPSDLLELDVDG	≤ 1 µM
SEQ ID NO 34 (receptor, mutated soluble two domain ILT-2) MAGHLPKPTLWAEPGSVITQGSPVTLRCQGGQETQEYRLYREKKTAPWITRIPQELVKKGQFPIPSITWEHAGRYRCYYGSDTSQWSASSDPLELVVTGVYIKPTLSAQPSPVVNSGGNVTLQCDSQVAFDGFILCKEGEDEHPQCLNSQPHARGSSRAIFSVGPVSPSRRWWYRCYAYMNWAPYEWSLPSDLLELDVDG	≤ 1 µM

Assign Kd to the following record: SEQ ID NO 69 (receptor, mutated soluble two domain ILT-2) MGHLPKPTLWAEPGSVITLSQPVTLRCQGGQETQEYRLYREKKTAPWITRIPQELVKKGQFPIPSITWEHAGRYRCYYGSDTAGRSESSDPLELVVTGVYIKPTLSAQPSPVVNSGGNVTLQCDSQVAFDGFILCKEGEDEHPQCLNSQPHARGSSRAIFSVGPVSPSRRWWYRCYAYDSNSPYEWSLPSDLLELLVL
≤ 1 µM
